Below, each of the molecules is paired with its reported Number Responded/Number Treated value.
Assay: Inhibition of tetrabenazine induced depression of exploratory behavior in mice
Type: in vivo
Conditions: 25.0 mg/kg, intraperitoneally or orally, 1 h before tetrabenazine 30 mg/kg

CN1CCN(C2=Nc3ccccc3N(C)c3cscc32)CC1    8/10
CCN1c2ccccc2N=C(N2CCN(C)CC2)c2cscc21    9/20
CCN1CCN(C2=Nc3ccccc3N(C)c3cscc32)CC1    10/25
CN(C)CCCN1c2ccccc2CCc2ccccc21 [Imipramine, reference compound]    9/10
CN1c2ccccc2N=C(N2CCN(CCO)CC2)c2cscc21    10/20

Any idea what its Number Responded/Number Treated is? The molecule is CN1c2ccccc2N=C(N2CCNCC2)c2cscc21 10/20
